Assign composite z-score to each entry below.
target: Torsin-1A (Homo sapiens) (UniProt O14656); assay: small-molecule binders of mutant TOR1A in lysate, primary screen, cell lysate, small-molecule microarray, COS7 lysate, 635/667 nm fluorescence (AID 1150); conditions: COS7 hTOR1A mutant lysate, 635 nm fluorescence, higher = more signal;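 further: score pools 667 nm emission and signal to noise measuring lysate protein binding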
Sequence (O14656 whole entry, looked up): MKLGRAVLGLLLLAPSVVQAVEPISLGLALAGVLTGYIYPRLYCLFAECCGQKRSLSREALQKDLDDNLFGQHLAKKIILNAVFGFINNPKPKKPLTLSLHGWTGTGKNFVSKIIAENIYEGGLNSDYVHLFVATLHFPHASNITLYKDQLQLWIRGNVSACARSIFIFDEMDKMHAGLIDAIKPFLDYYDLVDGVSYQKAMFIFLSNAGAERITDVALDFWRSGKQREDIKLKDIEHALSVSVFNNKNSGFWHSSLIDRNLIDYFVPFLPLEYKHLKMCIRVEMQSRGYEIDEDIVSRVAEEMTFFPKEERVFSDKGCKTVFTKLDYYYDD
Keep it simple and answer with nothing but the number.

Can you share its composite z-score? I mean this compound: `[N-]=[N+]=NCc1ccccc1[C@H]1OC(c2ccc(OCCCO)cc2)=N[C@@]1(Cc1ccccc1N=[N+]=[N-])C(=O)N1CCOCC1`
0.488

Reported composite z-score, compound `O=C(N1CCOCC1)[C@]1(CCS(=O)(=O)c2ccccc2)N=C(c2ccc(OCCCO)cc2)O[C@@H]1c1ccccc1` : ____
0.77

Endpoint output: composite z-score of `CCCCCCc1nc(Cc2cc(OC)c(OC)c(OC)c2)c(C)c2c1[Si](C(C)C)(C(C)C)OC2` . Value?
0.0486

Reported composite z-score for `O=C/C=C/c1ccc(-c2ccccc2)cc1` : what is it?
0.0552

What measured composite z-score goes with `CN(C)CCCC[C@@H]1NC(=O)[C@H]2C[C@@H](C(=O)NCCCCCCNC(=O)CS)[C@@H](c3cccc(OCCO)c3)N2C1=O` ?
0.767

Look at this compound and give its reported composite z-score. `C=C(CCCC)C(=O)CC[C@H](OC(=O)c1ccccc1-c1ccccc1C(=O)O)c1cccc(OCCO)c1`
0.114

Using the record for `Cc1ccc(S[C@]2(C(=O)NCc3ccccc3)CC(=O)N(Cc3ccccc3Cl)[C@@H]2c2ccc(CO)cc2)cc1` , report its composite z-score.
0.0869

Name the reported composite z-score value associated with the compound `C=C[C@H](C)[C@@H](OC(=O)Nc1ccc(SC)cc1)c1ccc(OCCO)cc1`
0.278

Given the entry `C=CCOC(=O)[C@@H]1[C@H]2C(=O)O[C@H](c3ccccc3)[C@H](c3ccccc3)N2[C@H](c2ccc(OCCOC(=O)[C@H]3C[C@H]4C(=O)N[C@@H](CCCCN(C)C)C(=O)N4[C@H]3c3cccc(OCCO)c3)cc2)[C@@]12C(=O)Nc1ccccc12` , report its measured composite z-score.
0.824

Recorded composite z-score of `[N-]=[N+]=Nc1ccccc1C[C@]1(C(=O)N2CCCCC2)N=C(c2ccc(OCCCO)cc2)O[C@H]1c1ccccc1` , please.
0.402

Need composite z-score, item `CN(C)CCCCCCNC(=O)[C@@H]1C[C@@H]2C(=O)N[C@@H](CCCC[N+](C)(C)C)C(=O)N2[C@@H]1c1cccc(OCCO)c1`
-0.284

What measured composite z-score goes with `O=C1OC[C@@H](c2ccccc2)n2cc(/C=C/c3ccccc3)cc21` ?
-0.565

Which composite z-score value belongs to CCCCN1CC=CC23O[C@@H]4/C=C\CCC(C)OC(=O)C4[C@H]2C(=O)N(CCO)[C@@H]3C1=O (stereo partly specified) ?
2.94

Find the recorded composite z-score belonging to O=C1NC(=O)C2C1C=CC(C(O)C1CCCCC1)N2Nc1ccccn1 (stereo unspecified) and report it.
0.852

May I ask what composite z-score has been recorded for `O=C1c2ccccc2[C@](Cc2ccccc2I)(C(=O)NCCN2CCOCC2)[C@H](c2ccc(CO)cc2)N1Cc1ccccc1C(F)(F)F` ?
0.469

// lookup composite z-score for `C=CC[C@]12N=C(c3ccc(OCCCO)cc3)O[C@H]1c1ccccc1N(CCC)C2=O`
0.397

###

system: Chordin-like protein 2 (CHRDL2); experiment: CHRDL2 small-molecule binders, primary screen, biochemical, small-molecule microarray, 635 nm fluorescence (AID 1126); conditions: small-molecule microarray binding, fluorescence 635 nm; higher = more signal;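 further: printed compound slides probed with Chrdl2 protein at 4 µg/mL for 1 h at 4 C; score merges 667 nm emission intensity with signal to noise over three replicate slides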
readout.type: composite z-score
Give the value as a plain number.

So what composite z-score did CC(CO)N1C(=O)[C@@H]2[C@H]3C(=O)OCC=C[C@H]3OC23C=CCN(c2ccc4ccccc4c2)C(=O)[C@@H]13 (stereo partly specified) get with Chordin-like protein 2 (CHRDL2)?
-1.66

Could you share what composite z-score was measured for `CC(C)(C)OC(=O)N1[C@@H](C=C(Br)Br)COC1(C)C` , tested on Chordin-like protein 2 (CHRDL2)?
0.644

Please tell me: composite z-score of O=C1NC(=O)C2C1C=CC(C(O)C1CCCCC1)N2Nc1ccccn1 (stereo unspecified) , system Chordin-like protein 2 (CHRDL2)?
0.342

Param readout= composite z-score; system= Chordin-like protein 2 (CHRDL2); entry= COc1ccc(NN2C(C(O)c3ccccc3)C=CC3C(=O)N(C4CCCCC4)C(=O)C32)cc1 (stereo unspecified) ; returns value.
-0.223

Request body: readout composite z-score, system Chordin-like protein 2 (CHRDL2), query `COC(=O)[C@]1(Cc2ccccc2N=[N+]=[N-])N=C(c2ccc(OCCCO)cc2)O[C@@H]1c1ccccc1CN=[N+]=[N-]` . Return the value.
0.232

For the record C=CC[C@]1(C(=O)NCC(O)CO)N=C(c2ccc(OCCCO)cc2)O[C@H]1c1ccccc1CN=[N+]=[N-] (stereo partly specified) , what value of composite z-score is listed for Chordin-like protein 2 (CHRDL2)?
-1.33

Form: Entry = CS(=O)(=O)CCOC(=O)C1=CC(CCCO)=CC(C2CC2)N(Cc2sc3ccccc3c2Cl)C=C1C(=O)OCCS(C)(=O)=O (stereo unspecified) | System = Chordin-like protein 2 (CHRDL2) | composite z-score = ____
-0.225

Record lookup: for Chordin-like protein 2 (CHRDL2), what composite z-score belongs to `C=CC[C@@]1(C(=O)NCCCOC)N=C(c2ccc(OCCCO)cc2)O[C@@H]1c1ccccc1CN=[N+]=[N-]` ?
0.0984

Value wanted: composite z-score (Chordin-like protein 2 (CHRDL2)) of entry `C=C(C(=O)CC[C@@H](OC(=O)c1ccccc1-c1ccccc1C(=O)O)c1ccc(CO)o1)C(C)C`
0.386

Give composite z-score (Chordin-like protein 2 (CHRDL2)) of the following molecule: `COC(=O)Cn1c(C(=O)N(C)C)cc2c1C[C@H]1CN(C(=O)c3ccccc3)[C@@](Cc3ccccc3)(C(=O)OC)[C@@H]21`
-0.537

Find the measured composite z-score: item C[C@]12C(=O)N(CCO)[C@@H]3C(=O)N(c4ccc(Cl)cc4)CC=CC31O[C@@H]1/C=C\CCCOC(=O)C12 (stereo partly specified) , target or system Chordin-like protein 2 (CHRDL2).
-1.62

Recorded composite z-score for CN1C(=O)C2CC=C(C3=CCO[C@@H]3[C@H]3CCCN3S(=O)(=O)c3ccccc3[N+](=O)[O-])CC2C1=O (stereo partly specified) with Chordin-like protein 2 (CHRDL2), please?
-0.537

# query: composite z-score | item `COCCCNC(=O)[C@]1(Cc2ccccc2N=[N+]=[N-])N=C(c2ccc(OCCCO)cc2)O[C@@H]1c1ccccc1` | system: Chordin-like protein 2 (CHRDL2)
-0.586

Form field - read-out: composite z-score; system: Chordin-like protein 2 (CHRDL2); submitted item: `COCCCNC(=O)[C@@]1(c2ccc([N+](=O)[O-])cc2)CC(=O)N(C2CCCCC2)[C@@H]1c1ccc(CO)cc1I`
0.151

Form field - read-out: composite z-score; system: Chordin-like protein 2 (CHRDL2); submitted item: `CC(C)[Si](C#Cc1ccccc1)(O[C@H](c1ccccc1)c1cn(Cc2ccccc2)nn1)C(C)C`
0.664

Entry `CCOC(=O)C1=CC[C@@H](c2ccccc2)N(S(=O)(=O)c2ccc(C)cc2)[C@@H]1C#N` , system Chordin-like protein 2 (CHRDL2): what composite z-score was measured?
-0.315

###

test: binders of probe aFGF10 on microarray, primary screen, stem cell growth factor project, biochemical, small-molecule microarray, fluorescence 635/667 (AID 1071); settings: higher = more signal;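 further: score merges 667 nm spot intensity and signal to noise from triplicate slides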
Please respond with reported composite z-score for every item in the list.

Would you kindly share the measured composite z-score for `C=CC[C@]1(C(=O)NCCN2CCOCC2)N=C(c2ccc(OCCCO)cc2)O[C@H]1c1ccccc1` ?
0.571

Return reported composite z-score; argument: `C=C(CCCC)C(=O)CC[C@@H](OC(C)=O)c1ccc(OCCO)cc1`
1.01

So what's the measured composite z-score for this one? CCCCCCCCCCC(O)C1C=CC2C(=O)N(C)C(=O)C2N1Nc1ccccc1 (stereo not given)
-1.07

Data request, read-out composite z-score, for `CCOC(=O)C[C@H]1[C@H](OC(=O)c2cc3ccccc3oc2=O)[C@@H](NC(=O)Cc2ccc(OC)cc2)c2cc(OCCCO)ccc2N1C(=O)Cc1ccc(OC)cc1`
0.527

// composite z-score lookup, key: `COc1ccc(CCNC(=O)[C@@H]2c3ccccc3C(=O)N(C(C)C)[C@H]2c2ccc(CO)cc2)cc1`
-0.92

Need composite z-score, item CC1CC/C=C\[C@H]2OC34C=CCN(CCN5CCOCC5)C(=O)[C@H]3N(C(CO)C(C)C)C(=O)[C@@H]4C2C(=O)O1 (stereo not given in full)
-0.528

Request the reported composite z-score associated with `C=C(CCCC)/C(=C/C[C@@H](OC(C)=O)c1cccc(OCCO)c1)c1cc(C(=O)OC)ccc1OC`
0.222

Endpoint output: composite z-score of CC(C)c1ccc(NN2C(C(O)C3CCCCC3)C=CC3C(=O)N(c4ccccc4)C(=O)C32)cc1 (stereo not given) . Value?
0.509

Which composite z-score value belongs to `C=CCNC(=O)[C@H]1[C@@H]2C(=O)O[C@@H](c3ccccc3)[C@@H](c3ccccc3)N2[C@@H](c2ccc(O)cc2)[C@]12C(=O)Nc1ccccc12` ?
-0.519

Which value of composite z-score has been reported for `O=C1C[C@@](C(=O)NCC(F)(F)F)(c2ccc([N+](=O)[O-])cc2)[C@@H](c2ccc(CO)cc2I)N1CC12CC3CC(CC(C3)C1)C2` in the records?
0.121

What does the record list as composite z-score for `COCCOC(=O)N1C(=O)[C@@]2(c3cc(C#CCCO)ccc31)[C@H](C(=O)N1CCN(c3ncccn3)CC1)[C@H]1C(=O)O[C@H](c3ccccc3)[C@H](c3ccccc3)N1[C@@H]2c1ccc(OCCO)cc1` ?
0.641

Entry under review: `CC(C)Cc1ccc(CN2CC[C@@H](NC(=O)c3ccccc3)C2)cc1` . Reported composite z-score?
-0.102

Tell me the measured composite z-score of `COC(=O)Cn1c(C(=O)N(C)C)cc2c1C[C@H]1CN(C(=O)c3ccccc3)[C@@](Cc3ccccc3)(C(=O)OC)[C@@H]21` , please.
0.0707

Tell me the measured composite z-score of `COc1ccc([Si](C)(C)[C@H]2[C@H](CCO)O[C@@]3(C(=O)N(Cc4ccccc4)c4ccc(NC(=O)[C@H](C)O)cc43)[C@@H]2C)cc1` , please.
1.12

Given the entry `C[C@@]1([C@@H](NS(=O)(=O)c2cccc3cccnc23)c2ccc(-c3ccccc3)cc2)C[C@H]1C1CCCCC1` , report its measured composite z-score.
-0.0733
